Tested on: SK-MEL-5 melanoma
Procedure Details: NCI tumour cell line growth inhibition, 48 h; in the data active = GI50 below about 0.43 µM; inactive = the rest
Outcome codes: yes (1) for active, no (0) for inactive

O=c1cc(-c2ccc(F)cc2)[nH]c2ncccc12: no (0)
CCSC[C@@H]1C[C@](O)(c2ccc(Cl)cc2)[C@@H](c2ccc(Cl)cc2)O1: no (0)
COc1cc(-n2ccnc2-c2ccc3ccccc3c2)cc(OC)c1OC: yes (1)
COc1cc2nc(N3CCCN(C)CC3)nc(NC3CCN(Cc4ccccc4)CC3)c2cc1OC: no (0)
COc1ccc2c(c1)CCC1C2CC[C@@]2(C)C1CC[C@@H]2NC(=O)Cc1ccc(O)c(O)c1 (stereo partly drawn): no (0)
CN1C(=O)CCC(N2C(=O)c3cccc(NCCOCCOCCNC(=O)c4cc5c(o4)C(=O)c4ccccc4C5=O)c3C2=O)C1=O (stereo not drawn): yes (1)
COc1cnc2c(c1)C(=O)c1c-2n(CCCN2CCCC2)c(=O)c2cc([N+](=O)[O-])ccc12: yes (1)
Oc1ccccc1-c1nn(CNc2ccc(Cl)cc2)c(=S)o1: no (0)
CCN1CCN(CCNc2nccc(-c3c(-c4ccc(F)c(O)c4)nc4occn34)n2)S1(=O)=O: no (0)
Cc1ccc2c(C(C[N+](=O)[O-])c3ccccc3)c(-c3ccccc3)[nH]c2c1 (stereo not drawn): no (0)
O=S(=O)(N=C1C(Cl)=C(Cl)C(=NS(=O)(=O)c2ccccc2)C(Cl)=C1Cl)c1ccccc1: no (0)
COc1ccc2c(c1)c(-c1nc(-c3cn(C)c4ccncc34)cs1)cn2C: no (0)
Fc1cccc(COc2ccc(Nc3ncnc4onc(-c5ccccc5)c34)cc2)c1: yes (1)

###

Parameter: GI50. Scope: all listed entries.
System: MDA-MB-231 breast
Procedure Details: NCI tumour cell line growth inhibition, 48 h
Reported Metric: GI50

O=C(O)Cc1cccc2c(=O)cc(-c3ccccc3)oc12: 834000 nM
COc1ccc(Nc2nc(NCCNc3ccnc4cc(Cl)ccc34)nc(N3CCOCC3)n2)cc1: 2730 nM
COc1cnc2c(c1)C(=O)c1c-2n(CCCN2CCCC2)c(=O)c2cc([N+](=O)[O-])ccc12: 683 nM
CCSC[C@@H]1C[C@](O)(c2ccc(Cl)cc2)[C@@H](c2ccc(Cl)cc2)O1: 18200 nM
Cc1ccc(CNc2ccc3nc(CCC4CCCCC4)[nH]c3c2)cc1: 1680 nM

###

System: OVCAR-8 ovarian
Procedure Details: NCI tumour cell line growth inhibition, 48 h
Decision: TGI >= 60 µM yields satisfied, all other cases yield not satisfied.

O=[N+]([O-])c1ccc(-c2csc(N=Nc3c(O)[nH]c4ccccc34)n2)cc1: satisfied
O=C(O)c1cccc(S(=O)(=O)NCCO)c1: satisfied
OC1CC2CCC(C1)N2CCCN1c2ccccc2Sc2ccc(Cl)cc21 (stereo unspecified): not satisfied
Cc1cc(N(CCC#N)CCC#N)ccc1/C(N=Nc1ccc([N+](=O)[O-])cc1)=N\NC(=O)c1cc(Cl)ccc1O: satisfied
NCC(=O)Nc1ccccc1: satisfied
O=C(c1c(F)c(F)c(F)c(F)c1F)c1c(F)c(F)c(F)c(F)c1F: not satisfied
COc1ccc(N2C(=O)C3CC(c4ccc(Br)cc4)c4c([nH]c5ccccc45)C3C2=O)cc1 (stereo unspecified): not satisfied
COc1ccc(NC(=O)Oc2ccc3c(C)cc(=O)oc3c2)c(OC)c1 (tested in a mixture with another compound): satisfied
Cc1ncn(-c2ccccc2O)c1C: satisfied
[N-]=[N+]=NCN1C(=O)C2C3C=CC(C2C1=O)C1C2C(=O)N(CN=[N+]=[N-])C(=O)C2C31 (stereo unspecified): satisfied

###

System: HL-60(TB) leukemia
Procedure Details: NCI tumour cell line growth inhibition, 48 h; in the data active means GI50 below about 0.43 µM; inactive means the rest
Outcome codes: active, inactive

Cc1ccc2c(C(C[N+](=O)[O-])c3ccccc3)c(-c3ccccc3)[nH]c2c1 (stereo unspecified): inactive
FC1(F)ON2CCc3ccccc3C2[C@H]1c1ccccc1 (stereo partly specified): inactive
COc1ccc(-c2ncnc3c2ncn3CC#CCCl)cc1: inactive
COc1ccc2c(c1)c(-c1nc(-c3cn(C)c4ccncc34)cs1)cn2C: inactive
CC1SC(c2ccccc2Cl)N(NC(=O)C(O)c2ccccc2)C1=O (stereo unspecified): inactive
COc1ccccc1C#Cc1ccccc1C#Cc1ccc(OCCCCCCOc2ccccc2C#Cc2ccccc2C#Cc2ccccc2OC)cc1: inactive
COc1ccc(Nc2nc(NCCNc3ccnc4cc(Cl)ccc34)nc(N3CCOCC3)n2)cc1: inactive
NC(=S)N/N=C/c1ccc(OC(=O)COc2cc(Cl)c(Cl)cc2Cl)cn1: inactive
CCC[CH2][Sn](=[O])[CH2]CCC: inactive
CC(=O)O.CN1[CH-]N(Cc2ccc(C#N)cc2)c2ccccc21.[Ag+]: inactive
CCOC(=O)c1[nH]c2cc(Cl)ccc2c1[C@@H](C(=O)NC(C)(C)C)N(CC)C(=O)CCCCC#Cc1cccc2c1CN(C1CCC(=O)NC1=O)C2=O (stereo partly specified): active

###

Parameter: GI50. Scope: all listed entries.
System: RPMI-8226 leukemia
Procedure Details: NCI tumour cell line growth inhibition, 48 h
Reported Metric: GI50

COc1ccc2cc(-c3cnc4nonc4n3)ccc2c1: 0.685 µM
FC1(F)ON2CCc3ccccc3C2[C@H]1c1ccccc1 (stereo partly specified): > 100 µM
COc1cc2nc(Nc3cccc(Cl)c3)nc(N)c2cc1OC: 2.11 µM
CC1SC(c2ccccc2Cl)N(NC(=O)C(O)c2ccccc2)C1=O (stereo unspecified): 45 µM
C(=N\Nc1ncc(-c2cc3cc4c(cc3o2)OCO4)s1)/c1ccco1: 3.08 µM
COc1ccc2c(c1)CCC1C2CC[C@@]2(C)C1CC[C@@H]2NC(=O)Cc1ccc(O)c(O)c1 (stereo partly specified): 3.68 µM

###

Test system: NCI-H226 lung
Procedure Details: NCI tumour cell line growth inhibition, 48 h
Parameter: TGI. Scope: all listed entries.
Reported Metric: TGI (µM)

CCn1c(SCC(=O)N/N=C2\SCC(=O)N2c2ccc(C)cc2)nc2ccccc2c1=O: 64.8
O=C1Nc2c(Cl)cc(Cl)cc2/C1=N/N=C/c1ccco1: 59.2
COc1ccc(C2CC(c3c(O)ccc4ccccc34)=NN2)cc1OC (stereo unspecified): 14.6

###

System: K-562 leukemia
Procedure Details: NCI tumour cell line growth inhibition, 48 h
Where a SMILES comes first, the peptide text is derived from it. [ ]: non-standard residue; d: D form. pGlu = O=C1CC[CH](C(=O)O)N1; Thz = O=C(O)[CH]1CSCN1
Reported Metric: TGI

O=C1CCC(C(=O)N2CSCC2C(=O)O)N1 (configuration not stated) ([pGlu]-[Thz]-OH; configuration not given here): > 100 µM
CC(C)(C)C1=C(Br)C(F)(C(C)(C)C)OP1(=O)c1ccccc1 (configuration not stated): 22.9 µM
COC(=O)Nc1nc2ccc(NS(=O)(=O)c3cccs3)cc2[nH]1: > 100 µM
Cc1ccc2c(c1)nc1n2C(c2c(F)cccc2F)SC1 (configuration not stated): > 100 µM
COc1ccc2c(c1)c1c3c(ccc4ncn2c43)N(CCO)CCN=1: 0.228 µM
FC1(F)ON2CCc3ccccc3C2[C@H]1c1ccccc1 (some centres not stated): > 100 µM
COc1ccc(C(=O)C2CCC(C(=O)O)C2)cc1 (configuration not stated): > 100 µM
COc1cc(-n2ccnc2-c2ccc3ccccc3c2)cc(OC)c1OC: > 100 µM
CC1(C)N=C(N)N=C(N)N1c1ccc(CNC(=O)Nc2ccc(S(=O)(=O)F)c(Cl)c2)c(Cl)c1: > 100 µM
CCOC(=O)c1[nH]c2cc(Cl)ccc2c1[C@@H](C(=O)NC(C)(C)C)N(CC)C(=O)CCCCC#Cc1cccc2c1CN(C1CCC(=O)NC1=O)C2=O (some centres not stated): > 100 µM
COc1ccc2[nH]cc(CCNC(=O)[C@H](Cc3ccc(O)cc3)NC(=O)[C@@H](NCC(F)(F)F)C(C)C)c2c1: > 100 µM
CN(O)C(=O)CCC(NC(=O)CCC(N)C(=O)O)C(=O)NCC(=O)O (configuration not stated): > 100 µM
O=S1(=O)c2ccccc2N(O)C2=NCCN21: > 100 µM
Cc1ncn(-c2ccccc2O)c1C: > 100 µM
COC(=O)c1cc2c(c(C(=O)OC)c1)CCC2: > 100 µM
COc1cc2nc(Nc3cccc(Cl)c3)nc(N)c2cc1OC: > 36.1 µM
O=[N+]([O-])c1nccn1CC(O)c1ccccc1 (configuration not stated): > 100 µM
CSc1ccc(C2=NN(C(C)=O)C(c3ccc(-c4cc(Cl)c(Cl)cc4Cl)o3)C2)cc1 (configuration not stated): 34.2 µM
O=c1[nH]c(NCc2cccnc2)nc2nc[nH]c12: > 100 µM
O=[N+]([O-])c1ncc(N(CCO)CCO)s1: 57.5 µM
O=C(Nc1ccccc1)N(CCN(Cc1ccccc1)C(=O)Nc1ccccc1)CCN(Nc1ccccc1)C(=O)Nc1ccccc1: > 100 µM
ClCc1nc2ccccc2[nH]1: > 100 µM
Cc1ccc2c(C(C[N+](=O)[O-])c3ccccc3)c(-c3ccccc3)[nH]c2c1 (configuration not stated): > 95 µM
CCOC(=O)c1ccc(-n2cnc(-c3ccc([N+](=O)[O-])cc3)c2)cc1: > 100 µM
Cc1ccc(OCC2CO2)c(Br)c1 (configuration not stated): 71.6 µM
CCOC(=O)c1c(O)cn2c1[nH]c1cccc3cccc2c31: > 100 µM
CCn1c(SCC(=O)N/N=C2\SCC(=O)N2c2ccc(C)cc2)nc2ccccc2c1=O: > 100 µM
C=C(/C=C/C=C(\C)CCC=C(C)C)[C@@H]1CC[C@]2([C@H](CCCO)/C(=C(/C)C=O)CC[C@]2(C)O)[C@@H]1O: 30.9 µM
O=c1cc(-c2ccc(F)cc2)[nH]c2ncccc12: > 100 µM
[N-]=[N+]=NCN1C(=O)C2C3C=CC(C2C1=O)C1C2C(=O)N(CN=[N+]=[N-])C(=O)C2C31 (configuration not stated): > 100 µM
COC(=O)CCc1ccc(CCC(=O)OC)cc1: > 100 µM
Cc1ccc(OP(=O)(Oc2ccc(C)cc2)N2C=Cc3ccccc3C2C#N)cc1 (configuration not stated): > 100 µM
COC(=O)[C@H](Cc1ccccc1)NC(=O)c1ccc(CNC(=O)/C=C/c2ccc(OCc3ccccc3)cc2)cc1: > 100 µM
CC(C)(C)C(=O)N1C(C(=O)O)Cc2ccccc2[C@@H]1Cc1ccccc1 (some centres not stated): > 100 µM
CCOC(=O)CNC(=O)C(CCC(=O)N(C)O)NC(=O)CCC(N)C(=O)O (configuration not stated): > 100 µM
C=C(C)[C@@H]1CC[C@]2(CO)CC[C@]3(C)[C@H](CC[C@@H]4[C@@]5(C)CCCNC(C)(C)[C@@H]5CC[C@]43C)[C@@H]12: 3.79 µM
CN(C)Cc1cc(Cl)c(O)c(CN(C)C)c1: > 100 µM
O=S(=O)(O)c1ccc(N=Nc2ccccc2)cc1: > 100 µM
COC[C@H](NC(=O)c1cnc(C)s1)C(=O)N[C@@H](COC)C(=O)N[C@@H](Cc1ccccc1)C(=O)[C@@]1(C)CO1: > 100 µM
Cc1ccc(CNc2ccc3nc(CCC4CCCCC4)[nH]c3c2)cc1: 5.47 µM
CCCCN(CC)C(=O)C(=O)Cc1nc2ccc(C(=O)c3ccccc3)cc2[nH]c1=O: > 31.6 µM
CN(C)c1ccc(/C=c2\sc3nnc(-c4ccco4)n3c2=O)cc1: > 100 µM
